- target of assay: T1, BMPR-II ECD (Homo sapiens, UniProt Q13873)
- T1 chain: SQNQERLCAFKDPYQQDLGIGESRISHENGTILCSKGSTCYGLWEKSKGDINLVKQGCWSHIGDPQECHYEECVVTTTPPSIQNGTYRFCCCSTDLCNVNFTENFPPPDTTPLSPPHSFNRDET
- test protocol: BLI
endpoint name: Kd (nM)
Write the number in nM without appending the unit.

Challenge: Form field: reported Kd of BMP-9 (protein) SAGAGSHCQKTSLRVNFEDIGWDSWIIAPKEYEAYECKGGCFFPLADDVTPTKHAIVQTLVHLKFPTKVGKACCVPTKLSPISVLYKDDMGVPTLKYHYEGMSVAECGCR
Response given: 0.8

Challenge: Fill in the blank: the reported Kd of BMP-2 (protein) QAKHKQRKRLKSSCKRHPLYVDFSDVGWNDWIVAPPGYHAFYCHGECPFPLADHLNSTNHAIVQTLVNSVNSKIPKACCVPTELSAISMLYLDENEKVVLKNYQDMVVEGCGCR is ____.
Response given: 5.4

Challenge: Quick check: Kd of BMP-7 (protein) STGSKQRSQNRSKTPKNQEALRMANVAENSSSDQRQACKKHELYVSFRDLGWQDWIIAPEGYAAYYCEGECAFPLNSYMNATNHAIVQTLVHFINPETVPKPCCAPTQLNAISVLYFDDSSNVILKKYRNMVVRACGCH ?
Response given: 5.5

Challenge: Request the reported Kd associated with BMP-4 (protein) SPKHHSQRARKKNKNCRRHSLYVDFSDVGWNDWIVAPPGYQAFYCHGDCPFPLADHLNSTNHAIVQTLVNSVNSSIPKACCVPTELSAISMLYLDEYDKVVLKNYQEMVVEGCGCR
Response given: 56
